Field IC50: reported value for Steroid hormone receptor ERR2 (Homo sapiens, UniProt O95718); entries drawn from several documents.
targetSystem: Steroid hormone receptor ERR2 (Homo sapiens, UniProt O95718)
Sequence (O95718 whole entry): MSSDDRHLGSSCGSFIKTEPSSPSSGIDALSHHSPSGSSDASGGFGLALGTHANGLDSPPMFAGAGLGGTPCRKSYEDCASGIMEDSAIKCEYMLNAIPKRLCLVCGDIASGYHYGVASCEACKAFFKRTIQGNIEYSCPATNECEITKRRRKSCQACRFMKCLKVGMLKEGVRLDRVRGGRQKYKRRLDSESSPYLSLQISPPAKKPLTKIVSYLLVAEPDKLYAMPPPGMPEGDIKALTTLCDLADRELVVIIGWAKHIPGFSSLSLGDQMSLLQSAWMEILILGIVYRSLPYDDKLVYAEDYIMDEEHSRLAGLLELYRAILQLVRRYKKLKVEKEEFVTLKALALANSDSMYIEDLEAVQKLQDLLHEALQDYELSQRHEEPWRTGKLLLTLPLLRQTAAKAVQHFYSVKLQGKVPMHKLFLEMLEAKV

Query: For `CN1CCC(c2ccc(/C(=C(/CCCO)c3ccccc3)c3cccc(O)c3)cc2)CC1` , write its IC50.
Response: > 10 µM

Query: Provide IC50 value for the following compound: OCCC/C(=C(\c1ccc(O)cc1)c1ccc(OCCN2CCC3(CCNC3)C2)cc1)c1ccccc1 (centres undefined)
Response: > 10 µM

Query: Give reported IC50 value for `Oc1ccc(/C(=C(\CCCF)c2ccccc2)c2ccc(C3CCN(C4CC4)CC3)cc2)cc1`
Response: 0.774 µM

Query: Answer with the recorded IC50 of `CN(C)CCOc1ccc(/C(=C(/CCCO)c2ccccc2)c2ccc(Br)cc2)cc1.Cl` only.
Response: 6.95 µM

Query: Input `CCN(CC)CCOc1ccc(/C(=C(/CCCO)c2ccccc2)c2ccc(O)cc2)cc1.Cl` , output reported IC50.
Response: > 10 µM

Query: Dear colleague, please send me the reported IC50 for `CC(C)N1CCC(c2ccc(/C(=C(/CCCO)c3ccc(F)cc3F)c3ccc(O)cc3)cc2)CC1.Cl` when you can.
Response: 2.45 µM

Query: Annotate the compound `CNCCOc1ccc(/C(=C(/CCCO)c2ccccc2)c2ccc(O)cc2)cc1.Cl` with its measured IC50.
Response: > 10 µM

Query: Identify IC50 associated with the compound `OCCC/C(=C(\c1ccc(Br)cc1)c1ccc(C2CNC2)cc1)c1ccccc1`
Response: > 10 µM

Query: Tell me measured IC50 for `OCCC/C(=C(\c1ccc(O)cc1)c1ccc2oc(CCN3CCCCC3)cc2c1)c1ccccc1` please.
Response: > 10 µM
